assay_info: Pharmacokinetic data at 0.5 mg/kg dose given to dogs intravenously.
Format: ADME, organism-based, Canis lupus familiaris
Design: dose 0.5 mg/kg, route intravenous
settings: dog, in vivo, iv, read-out: Vdss
endpoint_name: Vd (L/kg)
Expressed in L/kg, but write only the number.

{"columns": ["molecule", "assay_result"],
 "data": [
  ["CN1Cc2cncn2Cc2ccc(C#N)c(c2)Oc2ccc3cccc(c3c2)N2CCC1C2=O (stereo not drawn)", 0.21],
  ["N#Cc1ccc2cc1Oc1ccc3c(c1)[C@@H](CCC3)N1CC[C@@H](NCc3cncn3C2)C1=O", 0.36],
  ["N#Cc1ccc2cc1Oc1cccc(c1)-c1ccccc1N1CCC(NCc3cncn3C2)C1=O (stereo not drawn)", 0.61],
  ["CN1CCc2cncn2Cc2ccc(C#N)c(c2)Oc2ccc3cccc(c3c2)N2CC[C@H]1C2=O", 0.25],
  ["N#Cc1ccc2cc1Oc1ccc3c(c1)[C@H](CC3)N1CC[C@@H](NCc3cncn3C2)C1=O", 0.5]
]}

Prompt line: Item CC1c2ccc(C#N)c(c2)Oc2cccc(c2)CN2CCC(NCc3cncn31)C2=O (single isomer, unassigned; diastereomer B) has what recorded Vd?
Response line: 0.69

Prompt line: // query Vd value for entry `N#Cc1ccc2cc1Oc1ccc3cccc(c3c1)N1CC[C@H](NC(=O)Cc3cncn3C2)C1=O`
Response line: 0.19

Prompt line: Please report the recorded Vd for N#Cc1ccc2cc1Oc1ccc(Br)c(c1)CN1CCC(NCc3cncn3C2)C1=O (stereo not drawn) .
Response line: 0.53
